Please go through the items and note down their Post-emergence Test ECHCG, percentage damage to the plant (five-point scale).
# Test system: Echinochloa crus-galli (ECHCG)
# Assay: Post-emergence Test (glasshouse, percentage damage to the plant)
# Type: in vivo
# Measurement Setup: post-emergence spray, 1000 g/ha unless otherwise stated, evaluated after 13 days

Here are 5 molecules together with their reported answers.
CCn1c(C)c(-c2ccc(OC(F)(F)F)cc2)c(=O)c(C(=O)O)c1-c1ccc(Cl)c(Cl)c1
3 (3=41-60%)
CCn1c(C)c(-c2cccc(Cl)c2)c(=O)c(C(=O)O)c1-c1ccnc(Cl)c1
2 (2=21-40%)
CCn1c(C)c(-c2ccc(F)c(C#N)c2)c(=O)c(C(=O)O)c1-c1ccc(Cl)c(Cl)c1 [Compound 91]
4 (4=61-80%)
CCn1c(C)c(-c2ccc(F)cc2OC)c(=O)c(C(=O)O)c1-c1ccc(Cl)c(Cl)c1
4 (4=61-80%)
CCn1c(C)c(-c2ccc(OC)c(C)c2)c(=O)c(C(=O)O)c1-c1ccc(Cl)c(Cl)c1
1 (1=0-20%)

Record Post-emergence Test ECHCG, percentage damage to the plant (five-point scale) for all entries; do not skip any.
1. CCn1c(C)c(-c2ccc(OC)c(C(F)(F)F)c2)c(=O)c(C(=O)O)c1-c1ccc(Cl)c(Cl)c1
2. CCn1c(C)c(-c2ccc(Cl)cc2)c(=O)c(C(=O)O)c1-c1ccnc(Cl)c1

[A]
1. 3 (3=41-60%)
2. 4 (4=61-80%)

Record Post-emergence Test ECHCG, percentage damage to the plant (five-point scale) for all entries; do not skip any.
1. CCn1c(C)c(-c2ccc(OC)nc2)c(=O)c(C(=O)O)c1-c1ccc(Cl)c(Cl)c1
2. CCn1c(C)c(-c2cccc(OC(F)(F)F)c2)c(=O)c(C(=O)O)c1-c1ccc(Cl)c(Cl)c1

[A]
1. 4 (4=61-80%)
2. 5 (5=81-100%)

Origin of the recorded values: patent US12660819B2
